drug sensitivity score listing for selected molecules.
Tested on: Calu-3
Assay: drug sensitivity score (DSS) for viability; higher = more toxic; extreme values may be limits of the assay
Conditions: 72 h
The answer should be a number; do not append a unit.

Consider the worked cases shown below.
molecule=O=C(O)c1cc(C(=O)O)c(C(=O)N(Cc2cccc(Oc3ccccc3)c2)[C@H]2CCCc3ccccc32)cc1C(=O)O assay_value=0
molecule="O=C([O-])c1ccccn1.O=C([O-])c1ccccn1.O=C([O-])c1ccccn1.[Cr+3] [chromium-picolinate]" assay_value=0
molecule="Cc1ccc(C(=O)c2ccc(CC(=O)O)n2C)cc1 [tolmetin]" assay_value=0
molecule="C[C@]12CC[C@H](O)C[C@H]1CC[C@@H]1[C@@H]2CC[C@]2(C)[C@@H](c3ccc(=O)oc3)C[C@H]3O[C@]132 [resibufogenin]" assay_value=3
molecule="O=c1[nH]c(=O)n([C@H]2CCCO2)cc1F (racemic) [ftorafur]" assay_value=0
molecule="Cc1cc(C(=O)CN2CCCC2)c(C)n1-c1ccc(F)cc1 [IU1]" assay_value=0
molecule=Cn1ncc2c(N3CCOCC3)nc(-c3cccc(O)c3)nc21 assay_value=6.7
molecule="Cc1ccc(S(=O)(=O)NC(=O)NN2CCCCCC2)cc1 [tolazamide]" assay_value=0
molecule="CC(C)NCC(O)COc1ccc(COCCOC(C)C)cc1 (stereo not drawn) [bisoprolol]" assay_value=0
molecule="O=C(Nc1ccc(C(O)(C(F)(F)F)C(F)(F)F)cc1)c1ccc(C(F)(F)F)cc1 [SR-1078]" assay_value=4.1

Return value of drug sensitivity score for input COC[C@@H](NC(C)=O)C(=O)NCc1ccccc1 [Lacosamide] , no commentary.
0

Return value of drug sensitivity score for input CCCCc1ccc(O)cc1O [rucinol] , no commentary.
0.1

Return value of drug sensitivity score for input CS(=O)(=O)c1cccc(CNc2nc(Nc3ccc4c(c3)CCC(=O)N4)ncc2C(F)(F)F)c1 , no commentary.
0.5

---

System: Calu-3
Assay: cell viability relative to DMSO; higher = less toxic
Conditions: 72 h; 10000 nM
cell viability listing for selected molecules.
Quick reminder: number only, in %, skip the unit.

Return value of cell viability for input Cc1ccc2c(N3CCN(CCc4cccc(N5CCNC5=O)c4)CC3)cccc2n1 , no commentary.
97.6

Return value of cell viability for input CC(=O)Nc1nnc(S(N)(=O)=O)s1 [acetazolamide] , no commentary.
94.3

Return value of cell viability for input CC(C)[C@H](NS(=O)(=O)c1ccc(-c2ccc(Br)cc2)cc1)C(=O)O , no commentary.
92.9

Return value of cell viability for input CCOCc1cc(OC)c(-c2ccc(C[C@H](NC(=O)c3c(F)cccc3F)C(=O)O)cc2)c(OC)c1 , no commentary.
98.5

Return value of cell viability for input CCOc1ccc(-n2c([C@@H](C)N(Cc3cccnc3)C(=O)Cc3ccc(F)c(C(F)(F)F)c3)nc3ncccc3c2=O)cc1 (racemic) , no commentary.
88.4

---

drug sensitivity score listing for selected compounds.
System: Vero E6
Assay: drug sensitivity score (DSS) for viability; higher = more toxic; extreme values may be limits of the assay
Conditions: 72 h
The answer should be a number; do not append a unit.

compound="CN/C(=N\\CCSCc1nc[nH]c1C)NC#N [cimetidine]" target_system="Vero E6" assay_value=0

Return value of drug sensitivity score for input CC(C)[C@@H](CS(=O)(=O)C(C)C)N1C(=O)[C@@](C)(CC(=O)O)C[C@H](c2cccc(Cl)c2)[C@H]1c1ccc(Cl)cc1 [AMG-232] , no commentary.
8.1

---

System: Caco-2
Experiment: cell viability relative to DMSO; higher = less toxic
Settings: 72 h; 1000 nM
property_label: cell viability (%)
Quick reminder: number only, in %, skip the unit.

Consider the worked cases shown below.
compound=CN1C(=O)N[C@H](Cc2c[nH]c3c(Cl)cccc23)C1=O assay_value=108
compound="CC[C@@H](CO)NC(=O)[C@@H]1C=C2c3cccc4c3c(cn4C)C[C@H]2N(C)C1 [methysergide]" assay_value=94.3
compound=CN(Cc1ccccc1)C(=O)[C@H](Cc1ccc2ccccc2c1)NC(=O)[C@@H]1C[C@@H](O)CN1C(=O)c1cn(C)c2ccccc12 assay_value=94.7
compound=CN[C@H](CC(=O)O)C(=O)O assay_value=103
compound=O=c1[nH]c2ccccc2c(=O)n1CCCN1CCN(c2ccccc2)CC1 assay_value=103
compound=CCOc1ccc2ccccc2c1C(=O)N[C@@H]1C(=O)N2[C@@H]1SC(C)(C)[C@@H]2C(=O)O assay_value=101
compound=C[N+](C)(C)CCCCCC[N+](C)(C)C assay_value=99.4
compound=OCCC#Cc1nc(-c2ccc(F)cc2)c(-c2ccncc2)n1CCCc1ccccc1 assay_value=91.6
compound=Fc1cccc(/C=N/N=C/c2cccc(F)c2)c1 assay_value=102
compound=O=C1N(c2ccccc2)c2ccccc2C1(Cc1ccncc1)Cc1ccncc1 assay_value=98.8

Return value of cell viability for input OCC[N+]12CN3CN(CN(C3)C1)C2 , no commentary.
101

Return value of cell viability for input O=c1[nH]c(=O)n([C@H]2CCCO2)cc1F (racemic) , no commentary.
90.7

Return value of cell viability for input C[C@H]1CC[C@H](n2c3cnccc3c3cnc(Nc4ccc5c(n4)CCN(C(=O)CO)C5)nc32)CC1 , no commentary.
95.3

Return value of cell viability for input c1ccc2c(-c3cnn4cc(-c5ccc(N6CCNCC6)cc5)cnc34)ccnc2c1 , no commentary.
85.9

Return value of cell viability for input CNc1nc(NCc2ccc(NS(C)(=O)=O)cc2Cl)cc(-c2ccccn2)n1 , no commentary.
95.1

---

cell viability listing for selected molecules.
System: Calu-3
Experiment: cell viability relative to DMSO; higher = less toxic
Conditions: 72 h; 100 nM
Quick reminder: number only, in %, skip the unit.

Consider the worked cases shown below.
molecule=Cc1cc(C(=O)CN2CCCC2)c(C)n1-c1ccc(F)cc1 target_system=Calu-3 property_label="cell viability" unit_label=% assay_value=102
molecule=COc1ccc2c(c1)/C(=C/c1cnc[nH]1)C(=O)N2 target_system=Calu-3 property_label="cell viability" unit_label=% assay_value=112
molecule=COc1ccc(-c2cc(=S)ss2)cc1 target_system=Calu-3 property_label="cell viability" unit_label=% assay_value=111

Return value of cell viability for input CC(=O)c1cc2c(o1)C(=O)c1ccccc1C2=O , no commentary.
101

Return value of cell viability for input O=C(Nc1ccc(C(O)(C(F)(F)F)C(F)(F)F)cc1)c1ccc(C(F)(F)F)cc1 , no commentary.
118

Return value of cell viability for input CCC(=O)NCC[C@@H]1CCc2ccc3c(c21)CCO3 , no commentary.
100

Return value of cell viability for input CCCCc1ccc(O)cc1O , no commentary.
83.4

Return value of cell viability for input C=C1C[C@]23C[C@@]1(O)CC[C@H]2[C@@]12C=C[C@H](O)[C@@](C)(C(=O)O1)[C@H]2[C@@H]3C(=O)O , no commentary.
108

Return value of cell viability for input O=P(O)(O)C(O)(Cn1ccnc1)P(=O)(O)O , no commentary.
91.9

Return value of cell viability for input O=c1[nH]c(=O)n([C@H]2CCCO2)cc1F (racemic) , no commentary.
93.9

Return value of cell viability for input Clc1ccc(Cn2c(CN3CCCC3)nc3ccccc32)cc1 , no commentary.
101

Return value of cell viability for input CN(C(=O)c1ccc(F)cc1C(F)(F)F)C1CCN(c2nnc(-c3ccnn3C)c3ccccc23)CC1 , no commentary.
92.8

Return value of cell viability for input O=C1c2c(O)cc(O)cc2O[C@H](c2ccc(O)c(O)c2)[C@H]1O , no commentary.
90.1

Return value of cell viability for input COc1ccc(-n2nc(C(F)(F)F)cc2-c2ccc(Cl)cc2)cc1 , no commentary.
109

---

cell viability listing for selected molecules.
Test system: U2OS
Test: cell viability relative to DMSO; higher = less toxic
Conditions: 72 h; 1000 nM
Answer format reminder: number followed by unit.

molecule=CCC[C@H](Nc1nc(-c2ccc(NC(=O)NCC)c(OC)c2)ncc1C)c1cccnc1 assay_value=19.1%

State cell viability (U2OS) of NC(N)=Nc1nc(CSCC/C(N)=N/S(N)(=O)=O)cs1 .
108%

State cell viability (U2OS) of c1ccc2c(c1)[I+]c1ccccc1-2 .
39.3%

State cell viability (U2OS) of Nc1nc(-c2nn(Cc3ccccc3F)c3ncccc23)ncc1C1CC1 .
101%

State cell viability (U2OS) of CC(=O)Nc1nnc(S(N)(=O)=O)s1 [acetazolamide] .
104%

State cell viability (U2OS) of Cc1cccc(NC(=O)c2ccc(C(F)(F)F)cc2C(=O)O)n1 .
97%

---

Tested on: Caco-2
Experiment: cell viability relative to DMSO; higher = less toxic
Settings: 72 h; 1000 nM
cell viability listing for selected compounds.
Quick reminder: number only, in %, skip the unit.

Consider the worked cases shown below.
compound="CCCC(C)C1(CC)C(=O)NC(=O)NC1=O (stereo not given)" unit_label=% assay_value=89.1
compound="C[C@]12CC[C@@H]3c4ccc(OC(=O)N(CCCl)CCCl)cc4CC[C@H]3[C@@H]1CC[C@@H]2OP(=O)(O)O [estramustine-phosphate]" unit_label=% assay_value=94.3

Return value of cell viability for input CC[N+](CC)(CC(=O)Nc1c(C)cccc1C)Cc1ccccc1 [denatonium-benzoate] , no commentary.
110

Return value of cell viability for input Clc1ccc(Cn2c(CN3CCCC3)nc3ccccc32)cc1 , no commentary.
97

Return value of cell viability for input COc1cc2ncnc(Nc3cccc(Br)c3)c2cc1OC , no commentary.
69.6

Return value of cell viability for input O=P(O)(O)C(O)(Cn1ccnc1)P(=O)(O)O , no commentary.
93.2

Return value of cell viability for input CC(=O)[C@H]1CC[C@H]2[C@@H]3C[C@H](C)C4=CC(=O)CC[C@]4(C)[C@H]3[C@@H](O)C[C@]12C , no commentary.
101

Return value of cell viability for input CS(=O)(=O)Nc1ccc(-c2coc3cc(OCc4cccc(C(=O)O)c4)ccc3c2=O)cc1 , no commentary.
97.1

Return value of cell viability for input COc1ccc2cccc(CCNC(C)=O)c2c1 , no commentary.
96.8

Return value of cell viability for input NC(=O)c1ccc(-c2nc(-c3ccccn3)c(-c3ccc4c(c3)OCO4)[nH]2)cc1 , no commentary.
106

Recorded values, source the supplement of paper PMC13380429.
